Attribution: patent US10227331B2

Measured Efflux ratio, listed per entry for reference.
Tested on: P. aeruginosa expressing IMP-1, efflux+ (MB9798)
Type: cell-based, Pseudomonas aeruginosa
Conditions: ratio MITC95 PA_9798/MITC95 PA_9799
Just the number, please, no unit after it.

molecule="NS(=O)(=O)c1c(S(=O)(=O)C2CNC2)ccc(-c2cnc3cc[nH]c3c2)c1-c1nn[nH]n1 [Example 16]" endpoint="Efflux ratio" observed=4.00
molecule="NCCS(=O)(=O)c1ccc(-c2ccc(N)nc2)c(-c2nn[nH]n2)c1S(N)(=O)=O [Example 321]" endpoint="Efflux ratio" observed=2.78
molecule="NCCS(=O)(=O)c1ccc(-c2cnn3c2CCC3)c(-c2nnn[nH]2)c1S(N)(=O)=O.O=C(O)C(F)(F)F [Example 152]" endpoint="Efflux ratio" observed=31.99
molecule="NCCS(=O)(=O)c1ccc(-c2ccnc3[nH]ccc23)c(-c2nnn[nH]2)c1S(N)(=O)=O.O=C(O)C(F)(F)F [Example 142]" endpoint="Efflux ratio" observed=4.00
molecule="NCCS(=O)(=O)c1ccc(-c2cccn3ccnc23)c(-c2nnn[nH]2)c1S(N)(=O)=O [Example 64]" endpoint="Efflux ratio" observed=1.00

Next up:
Ask | Please give the measured Efflux ratio for this molecule: NCCS(=O)(=O)c1ccc(-c2cccc3cc(N)ncc23)c(-c2nn[nH]n2)c1S(N)(=O)=O [Example 73]
Reply | 1.00
